target: Delta-type opioid receptor (Rattus norvegicus, UniProt P33533); experiment: Compound was evaluated for its ability to displace [3H]p-CI-DPDPE in C6 glioma cells expressing the cloned Opioid receptor delta 1
Sequence (P33533 whole entry): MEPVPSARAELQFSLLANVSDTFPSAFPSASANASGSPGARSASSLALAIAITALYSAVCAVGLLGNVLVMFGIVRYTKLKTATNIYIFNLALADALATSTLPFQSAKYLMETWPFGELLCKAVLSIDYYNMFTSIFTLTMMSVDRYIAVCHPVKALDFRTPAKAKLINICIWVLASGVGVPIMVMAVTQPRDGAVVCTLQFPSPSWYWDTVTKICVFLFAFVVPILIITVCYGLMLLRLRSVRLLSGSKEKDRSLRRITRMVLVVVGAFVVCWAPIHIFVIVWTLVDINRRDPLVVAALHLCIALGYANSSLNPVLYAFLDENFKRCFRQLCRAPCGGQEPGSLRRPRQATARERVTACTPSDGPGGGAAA
metric_name: pKi
Please report pKi as the negative decimal logarithm of the molar concentration, giving only the number.

Task: Quick one: pKi for Oc1ccc2c3c1OC1c4[nH]c5ccccc5c4C[C@@]4(O)[C@@H](C2)N(CCC2CCCCC2)CCC314 (some centres undefined) ?
Result: 6.74

Task: Please give the measured pKi for this compound: Oc1ccc2c3c1OC1c4[nH]c5ccccc5c4C[C@@]4(O)[C@@H](C2)N(Cc2ccccc2)CCC314 (some centres undefined)
Result: 6.94

Task: Sample Oc1ccc2c3c1OC1c4[nH]c5ccccc5c4C[C@@]4(O)[C@@H](C2)N(CC2CCCCC2)CCC314 (some centres undefined) — what was its pKi?
Result: 7.02

Task: Tell me the measured pKi of Oc1ccc2c3c1O[C@H]1c4[nH]c5ccccc5c4C[C@@]4(O)[C@@H](C2)N(CC2CC2)CC[C@]314 , please.
Result: 10.40

Origin of values: ChEMBL document CHEMBL1132798
